- assay system: hCA I (Homo sapiens, UniProt P00915)
- Construct: recombinant, obtained in-house as previously reported
- Sequence (P00915 2-261): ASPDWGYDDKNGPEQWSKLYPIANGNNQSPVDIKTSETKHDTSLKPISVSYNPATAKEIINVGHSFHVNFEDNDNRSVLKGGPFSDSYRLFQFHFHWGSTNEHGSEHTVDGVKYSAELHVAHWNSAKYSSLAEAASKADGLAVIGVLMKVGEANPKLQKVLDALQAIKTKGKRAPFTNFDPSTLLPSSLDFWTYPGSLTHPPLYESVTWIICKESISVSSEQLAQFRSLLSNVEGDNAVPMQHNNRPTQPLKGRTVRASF
- assay info: stopped-flow CO2 hydrase assay
test readout: Ki

>  <compound>
O=C(N/N=C1\SCC(=O)N1c1ccc(F)cc1)C(O)c1ccccc1 (stereo not drawn) [3c]

>  <test readout>
Ki

>  <result>
> 100 µM

$$$$
>  <compound>
O=C(N/N=C1\SCC(=O)N1c1cccc(F)c1)C(O)c1ccccc1 (stereo not drawn) [3b]

>  <test readout>
Ki

>  <result>
> 100 µM

$$$$
>  <compound>
Cc1cccc(N2C(=O)C(C)S/C2=N\NC(=O)C(O)c2ccccc2)c1 (stereo not drawn) [4g]

>  <test readout>
Ki

>  <result>
> 100 µM

$$$$
>  <compound>
O=C(N/N=C1\SCC(=O)N1c1cccc(Cl)c1)C(O)c1ccccc1 (stereo not drawn) [3e]

>  <test readout>
Ki

>  <result>
> 100 µM

$$$$
>  <compound>
O=C(N/N=C1\SCC(=O)N1c1cccc(C(F)(F)F)c1)C(O)c1ccccc1 (stereo not drawn) [3o]

>  <test readout>
Ki

>  <result>
> 100 µM

$$$$
>  <compound>
CC1S/C(=N\NC(=O)C(O)c2ccccc2)N(c2cccc(C(F)(F)F)c2)C1=O (stereo not drawn) [4k]

>  <test readout>
Ki

>  <result>
> 100 µM

$$$$
>  <compound>
O=C(N/N=C1\SCC(=O)N1c1ccccc1Cl)C(O)c1ccccc1 (stereo not drawn) [3d]

>  <test readout>
Ki

>  <result>
> 100 µM

$$$$
>  <compound>
CC1S/C(=N\NC(=O)C(O)c2ccccc2)N(c2cccc(Br)c2)C1=O (stereo not drawn) [4e]

>  <test readout>
Ki

>  <result>
> 100 µM

$$$$
>  <compound>
Cc1ccc(N2C(=O)CS/C2=N\NC(=O)C(O)c2ccccc2)cc1 (stereo not drawn) [3l]

>  <test readout>
Ki

>  <result>
> 100 µM

$$$$
>  <compound>
Cc1cccc(N2C(=O)CS/C2=N\NC(=O)C(O)c2ccccc2)c1 (stereo not drawn) [3k]

>  <test readout>
Ki

>  <result>
> 100 µM

$$$$
>  <compound>
O=C(N/N=C1\SCC(=O)N1c1ccc(Br)cc1)C(O)c1ccccc1 (stereo not drawn) [3i]

>  <test readout>
Ki

>  <result>
> 100 µM

$$$$
>  <compound>
O=C(N/N=C1\SCC(=O)N1c1cccc(Br)c1)C(O)c1ccccc1 (stereo not drawn) [3h]

>  <test readout>
Ki

>  <result>
> 100 µM

$$$$
